These measurements were taken from patent US6387885B1.

# test target: LHRH rat pituitary receptor (Rattus norvegicus, UniProt P30969)
# Construct: from tissue; host or cells: rat pituitary
# Sequence (P30969 whole entry): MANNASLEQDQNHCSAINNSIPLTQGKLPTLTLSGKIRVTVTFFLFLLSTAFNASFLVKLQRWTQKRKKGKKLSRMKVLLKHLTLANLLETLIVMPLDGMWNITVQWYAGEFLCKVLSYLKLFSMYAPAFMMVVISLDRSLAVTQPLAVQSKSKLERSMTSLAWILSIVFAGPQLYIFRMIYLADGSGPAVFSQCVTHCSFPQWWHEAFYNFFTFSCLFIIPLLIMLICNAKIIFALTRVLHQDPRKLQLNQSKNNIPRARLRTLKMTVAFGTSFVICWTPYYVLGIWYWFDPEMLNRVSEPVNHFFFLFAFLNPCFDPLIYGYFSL
# procedure text: LHRH rat pituitary receptor binding (in vitro)
# experimental parameters: method of Haviv et al. J. Med. Chem. 32: 2340-2344 (1989), read-out: pKI (receptor binding affinity; negative logarithm of the equilibrium dissociation constant) (converted)
quantity measured: Ki (nM)
Write the number in nM without appending the unit.

- compound: "CC[C@H]1OC(=O)[C@H](C)[C@@H](O[C@H]2C[C@@](C)(OC)[C@@H](O)[C@H](C)O2)[C@H](C)[C@@H](O[C@@H]2O[C@H](C)C[C@H](N3CCCCC3)[C@H]2O)[C@](C)(OC)C[C@@H](C)C(=O)[C@H](C)[C@H]2N(CCc3ccc(Cl)c(Cl)c3)C(=O)O[C@]12C [Example 3]"
  Ki (nM): 3.55
- compound: "CC[C@H]1OC(=O)[C@H](C)[C@@H](O[C@H]2C[C@@](C)(OC)[C@@H](O)[C@H](C)O2)[C@H](C)[C@@H](O[C@@H]2O[C@H](C)C[C@H](N3CCCC3)[C@H]2O)[C@](C)(OC)C[C@@H](C)C(=O)[C@H](C)[C@H]2N(CCc3ccc(Cl)c(Cl)c3)C(=O)O[C@]12C [Example 1]"
  Ki (nM): 1.82

Query :: Please supply the value of reported Ki for the item CC[C@H]1OC(=O)[C@H](C)[C@@H](O[C@H]2C[C@@](C)(OC)[C@@H](O)[C@H](C)O2)[C@H](C)[C@@H](O[C@@H]2O[C@H](C)C[C@H](N3C(C)CCCC3C)[C@H]2O)[C@](C)(OC)C[C@@H](C)C(=O)[C@H](C)[C@H]2N(CCc3ccc(Cl)c(Cl)c3)C(=O)O[C@]12C (single isomer, unassigned) [Example 7]
Result :: 2.57
